Molecular target: ARAF/14-3-3 chimera (residues 274-606 of human ARAF fused to human 14-3-3 epsilon) (Homo sapiens, UniProt P10398+Q02750, D190N/G300S/Y301D/Y302D)
Construct: residues 274-606 of human ARAF, including the kinase domain and complete C-terminal region
Sequence (P10398 274-606 G300S/Y301D/Y302D limits assumed): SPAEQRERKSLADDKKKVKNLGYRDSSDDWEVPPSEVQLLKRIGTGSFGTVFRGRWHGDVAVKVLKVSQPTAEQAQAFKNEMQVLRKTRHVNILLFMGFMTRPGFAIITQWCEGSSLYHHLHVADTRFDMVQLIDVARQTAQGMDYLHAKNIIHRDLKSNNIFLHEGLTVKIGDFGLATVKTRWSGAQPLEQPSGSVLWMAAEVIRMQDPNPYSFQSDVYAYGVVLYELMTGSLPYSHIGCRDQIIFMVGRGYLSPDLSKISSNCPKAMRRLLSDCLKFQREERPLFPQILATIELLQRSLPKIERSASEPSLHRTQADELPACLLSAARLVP
Sequence (Q02750 whole entry D190N, the tested form may be a part): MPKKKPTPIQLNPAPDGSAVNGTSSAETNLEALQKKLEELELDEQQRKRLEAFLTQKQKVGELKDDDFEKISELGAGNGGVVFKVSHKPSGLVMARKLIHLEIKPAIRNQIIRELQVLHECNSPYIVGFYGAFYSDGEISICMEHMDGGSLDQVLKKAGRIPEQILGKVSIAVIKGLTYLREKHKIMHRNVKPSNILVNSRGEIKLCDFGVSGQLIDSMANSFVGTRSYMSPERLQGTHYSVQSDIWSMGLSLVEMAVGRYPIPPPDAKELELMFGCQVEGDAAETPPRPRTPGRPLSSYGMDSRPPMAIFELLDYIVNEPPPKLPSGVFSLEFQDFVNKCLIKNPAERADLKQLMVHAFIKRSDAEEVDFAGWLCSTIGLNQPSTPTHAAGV
Assay: TR-FRET-based kinase assay: inhibition of phosphorylation of MEK1 by ARAF
Conditions: 250 nM MEK1(D190N), 75 nM ARAF/14-3-3 chimera, 30 minutes incubation with inhibitor, 200 μM ATP, 1 hour, HTRF
pIC50 listing for selected compounds.
When answering, recall that pIC50 equals minus log10 of the concentration in mol/L, and write that number alone.

These recorded examples may help you get a feel for the data.
Cc1c(=O)n(C)c(Nc2ccc(I)cc2F)c2c(=O)n(C3CC3)c(=O)n(-c3cccc(NC(=O)CCl)c3)c12 = 6.31
C=C(F)C(=O)Nc1cccc(-n2c(=O)n(C3CC3)c(=O)c3c(Nc4ccc(I)cc4F)n(C)c(=O)c(C)c32)c1 = 6.68
Cc1c(Cc2cccc(NC(=O)CCl)c2F)c(=O)oc2cc(Oc3ncccn3)ccc12 = 7.22

Now take the following compound into account.
Input line: Indicate the recorded pIC50 value for this compound: C=CC(=O)Nc1cccc(Cc2c(C)c3ccc(Oc4ncccn4)cc3oc2=O)c1F
Output line: 6.89

====

Target: ARAF/MEK protein complex (Homo sapiens, UniProt P10398+Q02750)
Sequence (P10398 whole entry): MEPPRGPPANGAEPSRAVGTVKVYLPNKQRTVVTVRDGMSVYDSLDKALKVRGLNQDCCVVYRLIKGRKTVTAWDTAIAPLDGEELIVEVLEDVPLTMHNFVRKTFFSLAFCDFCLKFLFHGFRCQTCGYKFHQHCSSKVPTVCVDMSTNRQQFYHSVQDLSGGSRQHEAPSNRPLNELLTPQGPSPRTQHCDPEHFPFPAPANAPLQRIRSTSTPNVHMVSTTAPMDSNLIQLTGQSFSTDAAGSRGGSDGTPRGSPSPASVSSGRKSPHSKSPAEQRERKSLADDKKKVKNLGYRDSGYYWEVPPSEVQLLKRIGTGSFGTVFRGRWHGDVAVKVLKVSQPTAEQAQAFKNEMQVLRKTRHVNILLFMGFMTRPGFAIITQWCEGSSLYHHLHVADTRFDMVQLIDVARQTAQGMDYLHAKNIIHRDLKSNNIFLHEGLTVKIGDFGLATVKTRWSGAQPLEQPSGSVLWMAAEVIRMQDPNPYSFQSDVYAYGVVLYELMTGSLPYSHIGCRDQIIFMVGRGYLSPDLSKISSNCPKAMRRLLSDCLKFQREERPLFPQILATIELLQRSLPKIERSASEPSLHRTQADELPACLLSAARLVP
Sequence (Q02750 whole entry): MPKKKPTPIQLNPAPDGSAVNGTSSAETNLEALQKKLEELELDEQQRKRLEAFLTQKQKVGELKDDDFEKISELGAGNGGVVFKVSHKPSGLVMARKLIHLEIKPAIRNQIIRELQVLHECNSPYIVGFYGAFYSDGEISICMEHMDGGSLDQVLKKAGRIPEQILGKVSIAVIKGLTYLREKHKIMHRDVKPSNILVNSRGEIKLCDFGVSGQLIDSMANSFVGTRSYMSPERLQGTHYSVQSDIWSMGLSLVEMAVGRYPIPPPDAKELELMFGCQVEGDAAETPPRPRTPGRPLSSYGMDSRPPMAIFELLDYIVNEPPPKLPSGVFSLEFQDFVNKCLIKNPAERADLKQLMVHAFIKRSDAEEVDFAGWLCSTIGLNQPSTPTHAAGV
Test: Mass spectrometry-based assay for covalent labeling of ARAF
Format: binding
Settings: ARAF/MEK protein complex incubated at room temperature for 2 hours with inhibitor at concentration ratio 1:10; LC-MS of denatured protein
% labeling (covalent labeling of ARAF) listing for selected compounds.

O=C(CCl)Nc1ccc(CNC(=O)c2ccc(F)c(F)c2Nc2ccc(I)cc2F)cc1 = 40%
C=CC(=O)Nc1ccc(CNC(=O)c2cc3c(ncn3C)c(F)c2Nc2ccc(Br)cc2Cl)cc1 = 0%
COC(=O)c1cc2c(ncn2Cc2ccc(NC(=O)CCl)cc2)c(F)c1Nc1ccc(Br)cc1Cl = 75%

Now take the following compound into account.
Input line: Indicate the recorded % labeling (covalent labeling of ARAF) value for this compound: Cn1cnc2c(F)c(Nc3ccc(Br)cc3Cl)c(C(=O)NCc3ccc(NC(=O)CCl)cc3)cc21
Output line: 40%
